Recorded PD-1/PD-L1 blockage (IC50, µg/ml), one value per entry.
Molecular target: PD-1 expressed on cells (human, UniProt Q15116 25-288)
Sequence (Q15116 25-288 limits assumed): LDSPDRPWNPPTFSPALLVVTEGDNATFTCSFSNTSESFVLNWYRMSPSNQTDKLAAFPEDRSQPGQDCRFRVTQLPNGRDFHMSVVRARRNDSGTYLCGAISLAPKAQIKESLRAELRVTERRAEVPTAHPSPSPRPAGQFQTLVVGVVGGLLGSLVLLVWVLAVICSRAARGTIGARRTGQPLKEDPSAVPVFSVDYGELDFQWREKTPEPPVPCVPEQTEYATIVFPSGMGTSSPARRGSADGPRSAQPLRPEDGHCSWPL
Test: cell-based or functional assay
Return type: number; implicit unit µg/mL.

Example results:
For the binder shown here, A4 (antibody, V domains shown, Tested as full-length mAb expressed in CHO cells; also called antibody A4; L4H4) VH: QVQLVQSGAEVKKPGASVKVSCKASGYTFATYGVSWVRQAPGQGLEWMGWISAYSDNINYAQNLQGRVTITTDTSTSTAYMELRSLRSDDTAVYYCARDGSHGDYYYGMDVWGQGTTVTVSS VL: DIQMTQSPSSLSASVGDRVTITCRASQGISSWLAWYQQKPEKAPKSLIYAASSLQSGVPSRFSGSGSGTDFTLTISSLQPEDFATYYCQQYNSYPYTFGQGTKLEIKR , give the reported PD-1/PD-L1 blockage (IC50, µg/ml).
2.12

What do we get for A27 (antibody, V domains shown, Tested as full-length mAb expressed in CHO cells; also called antibody 27; L27H27) VH: QVQLVQSGAELVRPGTSVKLSCRASGYTFTTYWMHWVKQRPGQGLEWIGVIDPSDSYTYYNQKFKGKATLTVDTSSSTAYMQLSSLTSEDSAVYFCARNWDYWGQGTTLTVSS VL: AIQLTQSPSSLSASVGDRVTITCRASQGISSALAWYQQKPGKAPKLLIYDASSLESGVPSRFSGSGSGTDFTLTISSLQPEDFATYYCQQFNDYALTFGGGTKVEIK ?
0.528

Could you now look at the following binder, please?
Data request, read-out PD-1/PD-L1 blockage (IC50, µg/ml), for A12 (antibody, V domains shown, Tested as full-length mAb expressed in CHO cells; also called antibody A12; L12H12) VH: QVQLVESGGGVVQPGRSLRLSCAASGFTFSSYGMHWVRQAPGKGLEWVAVIWYDGSNKYYADSVKGRFTISRDNSKNTLYLQMNSLRAEDSAVYYCVCNPFDYWGQGTLVTVSS VL: DIQMTQSPSSLSASVGDRVTVTCRSSQGIAHYLAWYQQKPGKVPKVLLYAASTLQSGVPSRFSGSGSGTDFTLTISSLQPEDVATYYCQKYNSAPYTFGQGTKLEIK
3.16

Data provenance is patent US20220064302A1.
